# Tested on: Human myeloid monocytic leukemia cell line (MV-4-11)
# method: Inhibition of MV-4-11 cell proliferation (CellTiter luminescent viability)
# Type: cell-based
# measurement_context: Homo sapiens, MV4-11; Table IA3, IRAK4 inhibitor-based; MV-4-11, 500 nM, 96 hours; read-out: Inhibition Rate at 500 nM (%)
inhibition at 0.5 µM listing for selected compounds.

[[record]]
compound = "Cc1cc(-c2nc(C(=O)Nc3cc4oc(N5CCN(CC6CCN(c7cccc8c7C(=O)N(N7CCC(=O)NC7=O)C8=O)CC6)CC5)nc4nc3N3CC[C@@H](O)C3)co2)ccn1"
observed = "80 to 100%"

[[record]]
compound = "O=C1CCN(N2Cc3cc(CN4CCC(n5cc(NC(=O)c6coc(-c7ccnc(NCC(F)(F)F)c7)n6)c(C(F)F)n5)CC4)ccc3C2=O)C(=O)N1"
observed = "80 to 100%"


Task: Given CC[C@@H]1[C@H](F)C(=O)N[C@@H]1COc1nccc2cc(C(N)=O)c(OC)cc12 [PF06650833, PF-06650833, reference compound] , state its recorded inhibition at 0.5 µM.
Result: 20 to 36%

###

inhibition at 2 µM listing for selected molecules.
# measured_on: human Cereblon WT GST-tagged protein (CRBN) (Homo sapiens, UniProt Q96SW2)
# Construct: purchased CISBIO 64BDCRBNPEH
# Sequence (Q96SW2 whole entry): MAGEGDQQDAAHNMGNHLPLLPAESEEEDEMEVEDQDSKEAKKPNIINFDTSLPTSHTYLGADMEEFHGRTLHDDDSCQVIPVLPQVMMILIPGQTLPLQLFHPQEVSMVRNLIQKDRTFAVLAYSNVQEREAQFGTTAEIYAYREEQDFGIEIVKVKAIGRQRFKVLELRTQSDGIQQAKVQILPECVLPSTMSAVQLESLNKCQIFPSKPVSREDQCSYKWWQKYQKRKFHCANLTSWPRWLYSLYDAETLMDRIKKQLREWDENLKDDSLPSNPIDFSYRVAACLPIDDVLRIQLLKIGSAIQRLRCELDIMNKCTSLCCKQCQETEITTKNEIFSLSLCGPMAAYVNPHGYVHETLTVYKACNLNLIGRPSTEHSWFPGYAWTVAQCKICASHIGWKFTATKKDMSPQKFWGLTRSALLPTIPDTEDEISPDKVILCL
# method: CRBN binding by HTRF (Cereblon binding kit)
# measurement_context: 2 μM, read-out: Inhibition Rate at 2 μM (%)

[[record]]
molecule = "O=C1CCN(N2C(=O)c3ccc(N4C5CC4CN(C[C@H]4CC[C@H](n6cc(NC(=O)c7cnn8ccc(N9C[C@H]%10C[C@@H]9CO%10)nc78)c(C(F)F)n6)CC4)C5)cc3C2=O)C(=O)N1 [GT-05242]"
observed = "53 to 60%"

[[record]]
molecule = "O=C1CCN(N2Cc3cc(CN4CCC(n5cc(NC(=O)c6cnn7ccc(N8CCOCC8)nc67)c(C(F)F)n5)CC4)ccc3C2=O)C(=O)N1 [GT-05749]"
observed = "53 to 60%"

[[record]]
molecule = "CC1(C)[C@H](NC(=O)c2ccc(N3CCC(CN4CC5CCC4CN5c4ccc5c(c4)C(=O)N(N4CCC(=O)NC4=O)C5=O)CC3)nc2)C(C)(C)[C@H]1Oc1ccc(C#N)c(Cl)c1 (some centres unmarked) [GT-05834]"
observed = "20 to 30%"

[[record]]
molecule = "N#Cc1ccc(O[C@H]2CC[C@H](NC(=O)c3ccc(N4CCC(CN5C[C@@H]6C[C@H]5CN6c5ccc6c(c5)C(=O)N(N5CCC(=O)NC5=O)C6=O)CC4)nn3)CC2)cc1Cl [GT-05226]"
observed = "30 to 40%"

[[record]]
molecule = "Cn1ncc(Cl)c1-c1cc(C(=O)N[C@H](CNCC2CCN(c3cccc4c3C(=O)N(N3CCC(=O)NC3=O)C4=O)CC2)Cc2cccc(F)c2)sc1Cl [GT-08587]"
observed = "53 to 60%"

[[record]]
molecule = "CN(Cc1ccc2c(c1)CN(N1CCC(=O)NC1=O)C2=O)C1CCN(c2ccc(Nc3ncc4nc(Nc5ccccc5)n(C5CCCC5)c4n3)cc2)CC1 [GT-05842]"
observed = "53 to 60%"

[[record]]
molecule = "CN(Cc1ccc(-c2[nH]c3cc(F)cc4c3c2CCNC4=O)cc1)Cc1ccc2c(c1)CN(N1CCC(=O)NC1=O)C2=O [GT-08403]"
observed = "53 to 60%"

[[record]]
molecule = "Cc1cc(-c2ccc3c4cnccc4n(C)c3c2)cnc1N1CCN(Cc2ccc3c(c2)CN(N2CCC(=O)NC2=O)C3=O)CC1 [GT-08540]"
observed = "53 to 60%"

[[record]]
molecule = "Nc1ncnc2c1c(-c1ccc(Oc3ccccc3)cc1)nn2C1CCN(CC2CCN(C3CCN(c4ccc5c(c4)C(=O)N(N4CCC(=O)NC4=O)C5=O)CC3)CC2)CC1 [GT-05096]"
observed = "53 to 60%"

[[record]]
molecule = "Cc1nc2c(F)cc(-c3nc(Nc4ccc(CN5CCN(CC6CCN(c7ccc8c(c7)C(=O)N(N7CCC(=O)NC7=O)C8=O)CC6)CC5)cn4)ncc3F)cc2n1C(C)C [GT-06662]"
observed = "53 to 60%"


Pending molecule:
Task: Any idea what inhibition at 2 µM came out for C[C@@H]1CNC(=O)c2cc3ccc(C(=O)Nc4cnn(Cc5ccc(N6CCN(Cc7ccc8c(c7)CN(N7CCC(=O)NC7=O)C8=O)CC6)cc5)c4)nc3n21 [GT-08149] on human Cereblon WT GST-tagged protein (CRBN) (Homo sapiens, UniProt Q96SW2)?
Result: 53 to 60%
